MRC5 IC50 overview
biological target: Recombinant human IL-1β (BioLegend 579404) (human, UniProt P01584 117-269); assay: cell-based or functional assay
Starred links: 1 amine or outer side, 2 acyl side, 3 side chain; linkers in the order of their positions; H or OH if unused. Non-standard residues stand in square brackets, D forms with d. dPro(4R-(4-pyridylmethyl)) = O=C(O)[C@H]1C[C@@H](Cc2ccncc2)CN1; Ala(piperidin-4-yl) = O=C([C@H](CC1CCN([*:3])CC1)N[*:1])[*:2]; Trp(βS-Me,4-F) = C[C@@H](c1c[nH]c2cccc(F)c12)[C@H](N)C(=O)O; Bip(4'-COOH) = N[C@@H](Cc1ccc(-c2ccc(C(=O)O)cc2)cc1)C(=O)O; Ala(1-bicyclo(1.1.1)pentyl) = N[C@@H](CC12CC(C1)C2)C(=O)O; dPro(4R-Bzl(4-F)) = O=C(O)[C@H]1C[C@@H](Cc2ccc(F)cc2)CN1; Ala(pyrimidin-5-yl) = N[C@@H](Cc1cncnc1)C(=O)O; Phe(4-COOH) = N[C@@H](Cc1ccc(C(=O)O)cc1)C(=O)O; Pro(cis-4-F) = O=C(O)[C@@H]1C[C@H](F)CN1; 4Pal = N[C@@H](Cc1ccncc1)C(=O)O; d(αMeS) = C[C@@](N)(CO)C(=O)O; Dab = NCC[C@H](N)C(=O)O; Aib = CC(C)(N)C(=O)O
// units = nM; emit number, no label

BINDER	MRC5 IC50 (nM)
cyclo([Bip(4'-COOH)][Ala(1-bicyclo(1.1.1)pentyl)][Phe(4-COOH)]G[Pro(cis-4-F)][Trp(βS-Me,4-F)][Aib]EW[d(αMeS)][Ala(piperidin-4-yl)]QSG[dPro(4R-(4-pyridylmethyl))]) (ring closure inferred; not fully specified (bridges); printed as Bip4CO2H-AlaPent-Phe4COOH-G-Proc4F-SbMeW4F-Aib-E-W-daMeS-AlaPip4-Q-S-G-dProc4CH24Pal, cyclic (macrolactam)) [SEQ ID NO: 178]	0.041

Here's the next entry for you.
Query :: // MRC5 IC50 lookup, key: cyclo([Bip(4'-COOH)][4Pal][Phe(4-COOH)]G[Pro(cis-4-F)][Trp(βS-Me,4-F)][αMeDab]SW[Aib][Ala(pyrimidin-5-yl)]Q[Dab]G[dPro(4R-Bzl(4-F))]) (ring closure inferred; not fully specified (bridges); printed as Bip4CO2H-4Pal-Phe4COOH-G-Proc4F-SbMeW4F-aMeDab-S-W-Aib-PyrimAla-Q-Dab-G-dProc4Bn4F) [SEQ ID NO: 129]
Result :: 0.019
